Tested on: infected and uninfected cells
Conditions: read-out: concentration not toxic in vitro
measurement.type: MNTC (mM)

INSERT INTO measurements (compound, result_unit, observed_result) VALUES
  ('O=[N+]([O-])[O-].O=[N+]([O-])[O-].O=[N+]([O-])[O-].[Ga+3] [gallium nitrate]', 'mM', 1);
